// provenance: paper PMC10299128

MEASURED_ON: UniProtKB P56450
Sequence (P56450 whole entry): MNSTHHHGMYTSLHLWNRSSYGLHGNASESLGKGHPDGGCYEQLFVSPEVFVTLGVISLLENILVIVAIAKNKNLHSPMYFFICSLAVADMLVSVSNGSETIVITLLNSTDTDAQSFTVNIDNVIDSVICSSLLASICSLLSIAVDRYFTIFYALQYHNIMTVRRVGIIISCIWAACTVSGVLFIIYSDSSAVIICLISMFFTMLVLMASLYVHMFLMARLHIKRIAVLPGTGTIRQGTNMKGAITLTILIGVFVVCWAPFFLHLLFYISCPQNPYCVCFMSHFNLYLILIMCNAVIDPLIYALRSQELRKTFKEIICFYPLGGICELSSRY
ASSAY: AlphaScreen cAMP agonist assay, HEK293 cells stably expressing mMC4R
CONDITION_SET: at 1 mM; not enough stimulation to determine EC50
MEASUREMENT_LABEL: mMC4R percent maximal stimulatory response (compared to NDP-MSH) (% @ 1 mM)

Solved entries (count: 2):
C[C@H](O)[C@@H]1CN([C@H](Cc2ccccc2)CN2CCC[C@H]2CN2CCNC2=N)C(=N)N1CC1CCC(C(C)(C)C)CC1 (stereo partly drawn)    50
CC(C)C[C@H]1CNC(=N)N1C[C@H]1CCCN1C[C@@H](Cc1ccccc1)N1C[C@@H]([C@H](C)O)N(CC2CCC(C(C)(C)C)CC2)C1=N (stereo partly drawn)    60

I: CC(C)C[C@@H]1CNC(=N)N1C[C@@H]1CCCN1C[C@@H](CC1CCCCC1)N1C[C@H]([C@@H](C)O)N(CC2CCC(C(C)(C)C)CC2)C1=N (stereo partly drawn)
II: CC(C)C[C@@H]1CNC(=N)N1C[C@@H]1CCCN1C[C@@H](Cc1ccccc1)N1CCNC1=N
(Q) Decide: I or II , by lowest recorded mMC4R percent maximal stimulatory response (compared to NDP-MSH). Reply with the label of the item you choose.
(A) II
